target: Protein translocase subunit SecA (Escherichia coli (strain K12)) (UniProt P10408)
Sequence (P10408 whole entry): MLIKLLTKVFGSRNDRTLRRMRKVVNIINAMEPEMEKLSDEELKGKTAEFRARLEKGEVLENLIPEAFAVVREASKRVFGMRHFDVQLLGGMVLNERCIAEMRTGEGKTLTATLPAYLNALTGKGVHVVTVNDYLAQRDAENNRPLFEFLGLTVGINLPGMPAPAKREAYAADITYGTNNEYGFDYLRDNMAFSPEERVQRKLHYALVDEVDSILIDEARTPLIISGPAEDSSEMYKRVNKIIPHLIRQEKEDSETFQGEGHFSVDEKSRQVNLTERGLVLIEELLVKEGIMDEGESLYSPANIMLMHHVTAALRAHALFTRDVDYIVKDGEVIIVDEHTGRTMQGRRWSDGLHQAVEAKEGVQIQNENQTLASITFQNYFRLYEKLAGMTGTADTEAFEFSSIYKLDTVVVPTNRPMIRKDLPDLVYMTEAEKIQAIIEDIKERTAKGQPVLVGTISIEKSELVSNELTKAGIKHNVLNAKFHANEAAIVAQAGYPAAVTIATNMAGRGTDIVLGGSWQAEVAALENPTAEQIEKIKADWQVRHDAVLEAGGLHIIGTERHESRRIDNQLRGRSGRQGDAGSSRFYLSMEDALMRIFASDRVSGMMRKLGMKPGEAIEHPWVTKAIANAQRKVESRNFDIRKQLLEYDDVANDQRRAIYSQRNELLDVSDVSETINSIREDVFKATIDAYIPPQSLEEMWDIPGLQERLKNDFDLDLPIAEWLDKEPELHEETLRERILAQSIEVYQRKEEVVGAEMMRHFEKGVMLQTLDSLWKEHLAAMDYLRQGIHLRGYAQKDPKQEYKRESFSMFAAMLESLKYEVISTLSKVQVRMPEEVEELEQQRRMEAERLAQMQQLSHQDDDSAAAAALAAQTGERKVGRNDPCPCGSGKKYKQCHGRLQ
measurement-protocol: Assay to Identify E. coli SecA ATPase Inhibitors
Type: functional
Design: scale not given: direction of the effect not stated beside the values
experimental-conditions: 30 µM
Results with a measured potency or affinity are listed apart.
reported-metric: Percent Effect (%)
Numbers only, in %.

Cc1ccc(CNC(=O)CCSCc2csc(C)n2)cn1: -2.98
Cc1ccc(C(=O)Nc2cc(C(C)C)n[nH]2)cn1: -6.49
O=C(Cc1ccc(F)cc1)N1CCCCC1c1ccn2ccnc2n1 (stereo not given): -2.25
CCC(CC)C(CNC(=O)Nc1ccc(C)cc1)N1CCOCC1 (stereo not given): -3.76
Cc1cccc(COC[C@]23COC[C@H]2CN(C(=O)c2ccsc2)C3)n1: -1.49

Record Percent Effect for all entries; do not skip any.
1. CN(c1ccc(C(C)(C)C)cc1)S(=O)(=O)c1cc(C(=O)O)cs1
2. Cc1cc(C)n(C2CN(CC(=O)N3CCOCC3)C2)n1
3. CC(CNC(=O)c1ccc(Cl)cc1I)N1CCCC1 (stereo not given)

## Result
1: -2.58; 2: -2.95; 3: -0.489

Record Percent Effect for all entries; do not skip any.
1. COc1cccc(S(=O)(=O)CCN2CCC3(CC2)OCCO3)c1
2. Cc1nc(CCN(C)C(=O)C2COc3ccccc3C2)no1 (stereo not given)
3. COc1ccccc1C(=O)NC(C)CC(=O)O (stereo not given)
4. CC(NC(=O)c1cccs1)C(=O)NCc1cccnc1N1CCCCC1 (stereo not given)

## Result
1. -7.81
2. -7.54
3. -6.61
4. -5.05

Record Percent Effect for all entries; do not skip any.
1. COCC1CN(Cc2ccc(C)o2)Cc2nnn(CC3CC3)c21 (stereo not given)
2. O=C(NCc1ccccn1)[C@H]1COC[C@H]2CN(Cc3ccoc3)C[C@H]21
3. Cc1noc(C2CCCN(C(=O)c3ccc(Br)o3)C2)n1 (stereo not given)
4. c1ncn(CC2CCCCN2Cc2noc(C3CC3)n2)n1 (stereo not given)
5. OC1(CN2CCCC2)CCCN(Cc2ccc(F)cc2Cl)C1 (stereo not given)

## Result
1. -3.94
2. -2.43
3. -6.46
4. -0.132
5. -2.56

Record Percent Effect for all entries; do not skip any.
1. Cc1cc(C)n(CC(=O)N2CCC(NS(C)(=O)=O)CC2)n1
2. CCN(CC)C(=O)Nc1cc2c(cc1SC)OCCO2
3. CCc1ncc(CN(C)C(=O)Nc2cccnc2N2CCCC2)s1
4. CSCCCN1CCCC1c1noc(C)n1 (stereo not given)

## Result
[-2.87, -0.336, -6.28, -0.0492]

Record Percent Effect for all entries; do not skip any.
1. Cc1nc(CN(C)C2CCN(CC(=O)NC3CCOCC3)C2)no1 (stereo not given)
2. O=C(c1ccc(C2CCCO2)s1)N1CCN(c2ccccc2F)CC1 (stereo not given)
3. COc1ccnc(N2CCN(C(=O)c3csc(C4CC4)n3)CC2)n1
4. O=C(c1cnoc1)N1CCC[C@]2(C[C@@H](OCc3ccccn3)CO2)C1

## Result
1. -1.63
2. -2.34
3. -4.82
4. -1.86

====

Tested on: Trypanosoma cruzi
measurement-protocol: Trypanosoma cruzi phosphomannomutase and mannose-1-phosphate guanylyltransferase assay
Type: functional
Parameters: scale not given: direction of the effect not stated beside the values
experimental-conditions: 10 µM
reported-metric: Percent Effect (%)
Give bare numbers, in %.

These recorded examples may help you get a feel for the data.
N#Cc1cn(CC(=O)NC2CC2)c2ccc(Br)cc2c1=O: -1.27
Cc1ncnc2c1CCN(c1cc(C(F)(F)F)ncn1)CC2: -3.09
COc1ccc(C2CCCN2C(=O)NCCNc2ncccn2)cc1 (stereo unspecified): -7.83
CC1COCCN1Cc1nc(-c2cccs2)no1 (stereo unspecified): -3.49
O=C(NCC1CC1)[C@H]1C[C@H]2OCC[C@H]2N(CCc2ccccc2)C1: -5.96

Consider the additional compound presented here.
## Task GET /values?readout=Percent Effect&item= CCOc1ccccc1OC1CCN(C(=O)c2cc[nH]n2)CC1
## Result -4.13

====

Species on record: Homo sapiens
measurement-protocol: To identify inhibition of the IFN signalling (Jak-Stat) pathway via expression of an eGFP reporter gene under the control of an IFN-stimulated response element (ISRE) containing MxA promoter.
Type: functional
Set-up: scale not given: direction of the effect not stated beside the values
experimental-conditions: 30 µM
reported-metric: Percent Effect
Record the result as number plus unit.

These recorded examples may help you get a feel for the data.
COc1ccc(CN(C)Cc2nc3c(cnn3C)c(=O)[nH]2)cc1OC: 11.6%
CC(CNC(=O)c1ccc(Cl)cc1I)N1CCCC1 (stereo unspecified): -7.67%

Record Percent Effect for all entries; do not skip any.
1. Cc1ccc(C(=O)N2CCN(C(=O)NC(C)Cn3ccnc3)CC2)o1 (stereo unspecified)
2. COc1ccc(OC)c(C2C3=C(COC3=O)Nc3[nH]nc(C)c32)c1 (stereo unspecified)
3. CCOc1cc(C)ccc1NC(=O)N(C)Cc1cnn(C)c1
4. Cc1noc(Cl)c1CCC(=O)N1CCN(c2ncccn2)CC1

## Result
18.1%
7.65%
11.9%
21.6%

====

For each of the compounds below, state its Percent Effect.
target: Proteasome subunit beta (Trypanosoma cruzi)
Sequence (whole entry): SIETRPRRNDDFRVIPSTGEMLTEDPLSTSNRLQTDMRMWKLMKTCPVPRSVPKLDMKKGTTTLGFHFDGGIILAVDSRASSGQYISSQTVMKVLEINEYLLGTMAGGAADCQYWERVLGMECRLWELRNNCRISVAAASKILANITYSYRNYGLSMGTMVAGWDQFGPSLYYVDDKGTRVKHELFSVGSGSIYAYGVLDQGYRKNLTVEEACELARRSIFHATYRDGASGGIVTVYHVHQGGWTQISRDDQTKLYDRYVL
measurement-protocol: Trypanosoma cruzi proteasome chymotrypsin-like activity (TcProtChymo) assay. Note: in the data most compounds retested in dose-response had high values.
Assay type: functional
Parameters: scale not given: direction of the effect not stated beside the values
experimental-conditions: 9.37 µM
Numbers only, in %.

These recorded examples may help you get a feel for the data.
CCC(=O)N1CCCC1c1nccnc1Nc1ncccn1 (configuration not stated): -6.24
CCc1cc(NC2CCN(S(C)(=O)=O)CC2)n2nc(C)c(C)c2n1: 22.6
FC(F)(F)c1cccc(C2(CNCc3ccncc3)CCOCC2)c1: 13.9
CN(C)Cc1ccnc(C2CCCN2Cc2ccncc2)n1 (configuration not stated): 4.21
COCCN1CCC(CNC(=O)C2(c3cc(C)cc(C)c3)CCC2)C1 (configuration not stated): -4.82
CC(C)NC(=O)COc1nc(C(C)(C)C)no1: 4.31
CCc1ccc(C(=O)N2CCN(CC(C)O)CC2)o1 (configuration not stated): 16.2
CCOC1CCN(C(=O)c2c(Cl)c3ccccc3n2C)CC1: 13.4
COc1ccc(CNCC(C)Oc2ccccn2)cc1Br (configuration not stated): 9.8
Cc1ccccc1C(=O)N1CCOC2(CNCCOC2)C1 (configuration not stated): 17.8

Record Percent Effect for all entries; do not skip any.
1. COc1ccccc1CC(=O)NS(C)(=O)=O
2. CCCOc1cc(CNC(=O)Nc2cccnc2N2CCCC2)ccn1

## Result
1. 7.6
2. 5.77

====

Species: Homo sapiens
measurement-protocol: To identify inhibition of the IFN signalling (Jak-Stat) pathway via expression of an eGFP reporter gene under the control of an IFN-stimulated response element (ISRE) containing MxA promoter.
Type: functional
Design: scale not given: direction of the effect not stated beside the values
experimental-conditions: 30 µM
reported-metric: Percent Effect (%)
One number for each entry, in %.

These recorded examples may help you get a feel for the data.
COCCN(C)CC(=O)N1C[C@H]2CC[C@@H]1CN(C(=O)c1ccncc1)C2: 27.7
CC(C)(C)N1CCCN(C(=O)c2csc(S(N)(=O)=O)c2)CC1: -7.17
Cc1cc(C2CCCN(C(=O)CN3CCN(C)CC3)C2)n[nH]1 (centres undefined): 16.2
NC(=O)C1CCN(C(=O)c2ccn(-c3ccc(F)cc3)n2)C1 (centres undefined): 6.15
CCCn1nc2c(cc1=O)CN(CCS(C)(=O)=O)CC2: 7.82
CC(C)c1nnc2n1CCN(C(=O)c1ccc(CN(C)C)cc1)C2: 22.6

Record Percent Effect for all entries; do not skip any.
1. CC(C)(C)c1ncc2c(n1)CN(C(=O)c1ccncc1)C2
2. CNC(=O)C(NC(=O)c1nccn2ccnc12)c1ccc(F)c(F)c1 (centres undefined)
3. COCCCN(CCOC)C(=O)Nc1ccccc1Br

## Result
1: -6.92; 2: -10.6; 3: -13.7

Record Percent Effect for all entries; do not skip any.
1. O=C(c1cnco1)N1CCCC(Cc2cccc3ncccc23)C1 (centres undefined)
2. COc1ccc(C(=O)N2CCC(Nc3cccnn3)CC2)c(OC)c1
3. O=C(C1CCOCC1)N1CCC2(CC1)CC(Oc1ccccc1)CO2 (centres undefined)
4. Cc1nnc(N2CCC(CN(C)C(C)C)CC2)c(C#N)c1C
5. CCCn1c(C)c(CC(=O)N(C)CCOC)c2c1CC(C)(C)CC2=O
6. COCCn1cc2c(n1)C(CNCc1ccco1)OCC2 (centres undefined)
7. COc1c(C)cnc(CN2CCOC(Cn3nc(C)nc3C)C2)c1C (centres undefined)
8. CC(C)(C)OC(=O)N1CCCC[C@H]1C(=O)NCc1nccs1

## Result
17.8
0.418
14.1
4.7
-27.9
13.2
-11.7
-20.1

Record Percent Effect for all entries; do not skip any.
1. O=C(Cn1ccc2sccc2c1=O)NCc1ccc2c(c1)OCO2
2. COCCn1c2c(ccc1=O)CC(NS(C)(=O)=O)CC2 (centres undefined)
3. CCCNC(=O)N1CCC(Oc2cc(C)ccc2F)(C(=O)O)CC1

## Result
1.29
10.7
-5.25

Record Percent Effect for all entries; do not skip any.
1. COc1ccc(C(=O)N2CCCCC2c2nc(C)cs2)nn1 (centres undefined)
2. CC(C)COC(C)C(=O)NCc1ccc(N(C)C)cc1 (centres undefined)
3. CCn1cc(CN2CCCN(C(=O)c3ccn(C)c(=O)c3)CC2)cn1
4. Cc1cnn(CC2CCCN2C(=O)c2cnc3n[nH]c(C)c3c2)c1 (centres undefined)

## Result
[7.94, 5.87, 11.6, 2.33]

Provenance of the data: ChEMBL document CHEMBL3988442
